- targetOfAssay: T1, human Trop-2 (on the surface of human cell lines) (human, UniProt P09758 27-323)
- T1 construct: Endogenous Trop-2 on NCI-H322, Capan-1, PC-3, HUVEC, OVCAR-3, HCC38 and HCC1806 cells; also called TACSTD2
- T1 sequence: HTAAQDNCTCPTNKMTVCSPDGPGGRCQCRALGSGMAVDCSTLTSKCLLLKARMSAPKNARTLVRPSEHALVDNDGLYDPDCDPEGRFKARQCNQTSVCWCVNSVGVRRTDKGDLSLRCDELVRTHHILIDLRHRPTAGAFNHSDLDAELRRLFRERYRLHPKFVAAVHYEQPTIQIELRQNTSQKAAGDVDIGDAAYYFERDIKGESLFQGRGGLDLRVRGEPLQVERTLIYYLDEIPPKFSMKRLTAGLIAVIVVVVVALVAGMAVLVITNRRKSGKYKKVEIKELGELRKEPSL
- assayDetails: flow cytometry, OVCAR-3 cells
readoutLabel: EC50 (nM)
Give the value in nM but do not write nM after it.

Reference set, count: 3
binder="ch-Ab21 (antibody, human IgG1, kappa, V domains shown, Mouse VH/VL on human IgG1 and human kappa constant regions; also called chimeric antibody of Ab21) VH: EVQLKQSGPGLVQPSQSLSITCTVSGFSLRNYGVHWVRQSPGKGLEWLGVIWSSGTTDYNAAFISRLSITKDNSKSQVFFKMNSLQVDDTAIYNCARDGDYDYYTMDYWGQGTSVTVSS VL: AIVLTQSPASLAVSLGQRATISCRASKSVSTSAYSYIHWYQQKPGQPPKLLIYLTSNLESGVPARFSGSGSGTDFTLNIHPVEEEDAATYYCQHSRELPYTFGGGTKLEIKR" readoutlabel=EC50 quantitativeresult=1.02
binder="hz-Ab21-2.2 (antibody, human IgG1, kappa, V domains shown, Humanized antibody) VH: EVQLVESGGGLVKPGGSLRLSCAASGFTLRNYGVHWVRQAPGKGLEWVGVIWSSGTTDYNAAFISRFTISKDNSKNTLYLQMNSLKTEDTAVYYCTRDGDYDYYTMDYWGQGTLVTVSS VL: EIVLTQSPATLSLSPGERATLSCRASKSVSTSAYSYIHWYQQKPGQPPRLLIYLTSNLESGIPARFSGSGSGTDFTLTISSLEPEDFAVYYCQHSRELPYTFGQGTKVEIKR" readoutlabel=EC50 quantitativeresult=0.8
binder="hz-Ab21-2.1 (antibody, human IgG1, kappa, V domains shown, Humanized antibody) VH: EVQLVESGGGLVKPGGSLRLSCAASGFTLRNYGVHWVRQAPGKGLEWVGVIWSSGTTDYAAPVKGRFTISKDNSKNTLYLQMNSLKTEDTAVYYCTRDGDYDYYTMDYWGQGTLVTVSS VL: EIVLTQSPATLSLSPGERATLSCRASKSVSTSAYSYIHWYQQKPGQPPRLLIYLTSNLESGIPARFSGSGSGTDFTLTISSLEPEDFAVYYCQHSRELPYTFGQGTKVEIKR" readoutlabel=EC50 quantitativeresult=0.68

**Query** Can you share its EC50? I mean this binder: hz-Ab21-1.1 (antibody, human IgG1, kappa, V domains shown, Humanized antibody) VH: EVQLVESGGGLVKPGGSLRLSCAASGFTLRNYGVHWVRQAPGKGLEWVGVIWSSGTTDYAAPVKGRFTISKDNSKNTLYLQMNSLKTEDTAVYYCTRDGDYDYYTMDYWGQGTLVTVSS VL: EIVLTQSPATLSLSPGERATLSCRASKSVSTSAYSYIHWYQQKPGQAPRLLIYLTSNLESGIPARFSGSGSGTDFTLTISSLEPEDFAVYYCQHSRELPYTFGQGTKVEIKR
**Result** 0.62

**Query** Can you share its EC50? I mean this binder: ch-Ab35 (antibody, human IgG1, kappa, V domains shown, Mouse VH/VL on human IgG1 and human kappa constant regions; also called chimeric antibody of Ab35) VH: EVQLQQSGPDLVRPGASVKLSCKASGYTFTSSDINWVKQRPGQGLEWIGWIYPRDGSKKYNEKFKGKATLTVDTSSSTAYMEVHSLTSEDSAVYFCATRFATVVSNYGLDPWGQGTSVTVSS VL: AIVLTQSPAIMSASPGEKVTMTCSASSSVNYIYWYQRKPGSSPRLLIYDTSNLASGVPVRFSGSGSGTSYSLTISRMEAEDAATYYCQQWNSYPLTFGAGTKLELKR
**Result** 0.37
